Attribution: ChEMBL document CHEMBL3397015

SYSTEM_UNDER_TEST: DNA-3-methyladenine glycosylase (Homo sapiens, UniProt P29372)
Sequence (P29372 whole entry): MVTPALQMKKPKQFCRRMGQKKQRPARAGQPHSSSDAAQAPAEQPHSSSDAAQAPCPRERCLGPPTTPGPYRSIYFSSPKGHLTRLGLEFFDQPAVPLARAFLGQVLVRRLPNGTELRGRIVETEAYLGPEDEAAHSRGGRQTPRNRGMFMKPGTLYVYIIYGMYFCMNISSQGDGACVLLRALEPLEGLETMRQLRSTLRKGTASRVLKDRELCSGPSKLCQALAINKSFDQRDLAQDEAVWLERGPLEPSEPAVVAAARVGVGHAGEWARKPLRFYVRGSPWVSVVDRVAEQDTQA
ASSAY_REMARKS: Inhibition of human purified MPG pre-incubated with compound for 10 mins followed by addition of 1,N6 ethenoadenine containing 32P-labeled duplex oligonucleotide substrates at 20 uM by gel-based excision activity assay
MEASURED_METRIC: inhibition

{"SMILES_STRUCTURE": "O=C(O)/C=C/c1ccc(O)c(O)c1", "MEASURED_METRIC": "inhibition", "RECORDED_MEASUREMENT": "0%"}
{"SMILES_STRUCTURE": "O=c1c(O)c(-c2ccc(O)cc2)oc2cc(O)cc(O)c12", "MEASURED_METRIC": "inhibition", "RECORDED_MEASUREMENT": "25%"}
{"SMILES_STRUCTURE": "O.O=c1c(O)c(-c2ccc(O)cc2O)oc2cc(O)cc(O)c12", "MEASURED_METRIC": "inhibition", "RECORDED_MEASUREMENT": "81%"}
{"SMILES_STRUCTURE": "O=c1c(O)c(-c2cc(O)c(O)c(O)c2)oc2cc(O)cc(O)c12", "MEASURED_METRIC": "inhibition", "RECORDED_MEASUREMENT": "36%"}
{"SMILES_STRUCTURE": "O=C/C=C/c1ccccc1", "MEASURED_METRIC": "inhibition", "RECORDED_MEASUREMENT": "0%"}

====

Measured pIC50 accompanies every entry in the list below.
SYSTEM_UNDER_TEST: DNA-3-methyladenine glycosylase (Homo sapiens, UniProt P29372)
ASSAY_REMARKS: Inhibition of human purified MPG pre-incubated with compound for 10 mins followed by addition of 1,N6 ethenoadenine containing 32P-labeled duplex oligonucleotide substrates by gel-based excision activity assay
pIC50: −log10 of the molar value. Structures can show the parent of a compound that is named as a salt.

{"COMPOUND": "O=C1c2c(O)ccc(O)c2C(=O)c2c(NCCNCCO)ccc(NCCNCCO)c21 [MITOXANTRONE HYDROCHLORIDE]", "pIC50": 5.60}
{"COMPOUND": "O=C(O)C1=CC(=C(c2ccc(O)c(C(=O)O)c2)c2ccc(O)c(C(=O)O)c2)C=CC1=O", "pIC50": 6.70}
{"COMPOUND": "O.O=c1c(O)c(-c2ccc(O)cc2O)oc2cc(O)cc(O)c12", "pIC50": 5.59}
{"COMPOUND": "Cc1cc2c(C(C)C)c(O)c(O)c(C=O)c2c(O)c1-c1c(C)cc2c(C(C)C)c(O)c(O)c(C=O)c2c1O", "pIC50": 5.52}

====

SYSTEM_UNDER_TEST: DNA-3-methyladenine glycosylase (Homo sapiens)
ASSAY_REMARKS: Inhibition of human purified MPG binding to immobilized ethenoadenine containing 5'-TCGAGGATCCTGAGCTCGAGTCGACGXTCGCGAATTCTGCGGATCCAAGC-3' duplex oligonucleotide at 5 to 40 uM by SPR assay

{"SMILES_STRUCTURE": "O.O=c1c(O)c(-c2ccc(O)cc2O)oc2cc(O)cc(O)c12", "IC50 (µM)": 12}
